Values compiled from ChEMBL document CHEMBL1157048.

Tested on: Trypanosoma cruzi
Experiment: Antitrypanosomal activity against Trypanosoma cruzi Tulahuen 2 assessed as inhibition of epimastigotes growth at 50 uM
Format: functional
Conditions: read-out: GI
Where inhibition of growth at 50 µM equals or exceeds 50%, the correct label is label 1; where it does not, the label is label 0.

CCCNCCC(C)[C@H]1CC=C(C)CC1 (mixture of isomers) = label 0
C=C(C)[C@H]1CC=C(C)CC1 = label 0
CC1=CC[C@H](C(C)CCN(C)c2ccccc2)CC1 (mixture of isomers) = label 0

Reported inhibition of growth at 50 µM at or above 50%? CC1=CC[C@H](C(C)CCNCc2ccccc2)CC1 (mixture of isomers)
label 1

Does the compound CC1CS(=O)(=O)CCN1/N=C/c1ccc([N+](=O)[O-])o1 (stereo not given) have recorded inhibition of growth at 50 µM that is 50% or more?
label 1

Test whether the compound CC1=CC[C@H](C(C)CCNc2ccccc2)CC1 (mixture of isomers) records inhibition of growth at 50 µM of 50% or higher.
label 1

Could you tell me if the measured inhibition of growth at 50 µM of CC1=CC[C@H](C(C)CCN2CCOCC2)CC1 (mixture of isomers) reaches 50% or more?
label 0

Dear colleague, could you confirm whether CC1=CC[C@H](C(C)CCNCCO)CC1 (mixture of isomers) has inhibition of growth at 50 µM at or above 50%?
label 0

Exam item: decide whether the reported inhibition of growth at 50 µM for CC1=CC[C@H](C(C)CCN2CCNCC2)CC1 (mixture of isomers) is at least 50%.
label 1
